# assayed system: T1, TNFR1 (Homo sapiens, UniProt P19438)
# T1 chain: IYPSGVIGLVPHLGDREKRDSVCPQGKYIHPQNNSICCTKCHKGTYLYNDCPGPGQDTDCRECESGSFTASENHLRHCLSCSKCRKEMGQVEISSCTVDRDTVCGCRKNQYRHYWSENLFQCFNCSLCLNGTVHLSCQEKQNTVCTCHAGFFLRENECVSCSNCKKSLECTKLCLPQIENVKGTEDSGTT
# run description: yeast display SC50
experimental readout: apparent Kd (screen) (nM)

P. E14R (designed binder) SMEEEVEKAAKEYRKKKKEAIEKHLEKLKAKDKEAAERFLKELEEAAKEYAKDEAKTMSEEEAKRRAKKYKEKVLLSELSEEEQKEIKEAEEKLVRTILKYVEEAAK
Q. Y70K (designed binder) SMEEEVEKAAKEYEKKKKEAIEKHLEKLKAKDKEAAERFLKELEEAAKEYAKDEAKTMSEEEAKRRAKKKKEKVLLSELSEEEQKEIKEAEEKLVRTILKYVEEAAK
Ask | Please choose the item with the lower apparent Kd (screen) value from this pair: P and Q Pick one and reply with its label.
Reply | Q
(Q: 0.446 nM, P: 5.31 nM)

1. A63E (designed binder) SMEEEVEKAAKEYEKKKKEAIEKHLEKLKAKDKEAAERFLKELEEAAKEYAKDEAKTMSEEEEKRRAKKYKEKVLLSELSEEEQKEIKEAEEKLVRTILKYVEEAAK
2. R66D (designed binder) SMEEEVEKAAKEYEKKKKEAIEKHLEKLKAKDKEAAERFLKELEEAAKEYAKDEAKTMSEEEAKRDAKKYKEKVLLSELSEEEQKEIKEAEEKLVRTILKYVEEAAK
Ask | Among 1 and 2 , which shows a numerically higher apparent Kd (screen) result? // caller expects the label of the chosen entry
Reply | 1
(1: 7.07 nM, 2: 0.593 nM)

I. R96G (designed binder) SMEEEVEKAAKEYEKKKKEAIEKHLEKLKAKDKEAAERFLKELEEAAKEYAKDEAKTMSEEEAKRRAKKYKEKVLLSELSEEEQKEIKEAEEKLVGTILKYVEEAAK
II. L79T (designed binder) SMEEEVEKAAKEYEKKKKEAIEKHLEKLKAKDKEAAERFLKELEEAAKEYAKDEAKTMSEEEAKRRAKKYKEKVLLSETSEEEQKEIKEAEEKLVRTILKYVEEAAK
Ask | // pick larger apparent Kd (screen) from pair: I vs II Answer = label.
Reply | I
(I: 2.73 nM, II: 1.86 nM)

A. L99E (designed binder) SMEEEVEKAAKEYEKKKKEAIEKHLEKLKAKDKEAAERFLKELEEAAKEYAKDEAKTMSEEEAKRRAKKYKEKVLLSELSEEEQKEIKEAEEKLVRTIEKYVEEAAK
B. R38L (designed binder) SMEEEVEKAAKEYEKKKKEAIEKHLEKLKAKDKEAAELFLKELEEAAKEYAKDEAKTMSEEEAKRRAKKYKEKVLLSELSEEEQKEIKEAEEKLVRTILKYVEEAAK
Ask | From the recorded data, which exceeds the other in apparent Kd (screen): A or B ? Your answer should be the label of the entry you select.
Reply | A
